Tested Target: PI3-Kα (Mus musculus (Mouse))
Sequence (P42337 whole entry, the tested form may be a part): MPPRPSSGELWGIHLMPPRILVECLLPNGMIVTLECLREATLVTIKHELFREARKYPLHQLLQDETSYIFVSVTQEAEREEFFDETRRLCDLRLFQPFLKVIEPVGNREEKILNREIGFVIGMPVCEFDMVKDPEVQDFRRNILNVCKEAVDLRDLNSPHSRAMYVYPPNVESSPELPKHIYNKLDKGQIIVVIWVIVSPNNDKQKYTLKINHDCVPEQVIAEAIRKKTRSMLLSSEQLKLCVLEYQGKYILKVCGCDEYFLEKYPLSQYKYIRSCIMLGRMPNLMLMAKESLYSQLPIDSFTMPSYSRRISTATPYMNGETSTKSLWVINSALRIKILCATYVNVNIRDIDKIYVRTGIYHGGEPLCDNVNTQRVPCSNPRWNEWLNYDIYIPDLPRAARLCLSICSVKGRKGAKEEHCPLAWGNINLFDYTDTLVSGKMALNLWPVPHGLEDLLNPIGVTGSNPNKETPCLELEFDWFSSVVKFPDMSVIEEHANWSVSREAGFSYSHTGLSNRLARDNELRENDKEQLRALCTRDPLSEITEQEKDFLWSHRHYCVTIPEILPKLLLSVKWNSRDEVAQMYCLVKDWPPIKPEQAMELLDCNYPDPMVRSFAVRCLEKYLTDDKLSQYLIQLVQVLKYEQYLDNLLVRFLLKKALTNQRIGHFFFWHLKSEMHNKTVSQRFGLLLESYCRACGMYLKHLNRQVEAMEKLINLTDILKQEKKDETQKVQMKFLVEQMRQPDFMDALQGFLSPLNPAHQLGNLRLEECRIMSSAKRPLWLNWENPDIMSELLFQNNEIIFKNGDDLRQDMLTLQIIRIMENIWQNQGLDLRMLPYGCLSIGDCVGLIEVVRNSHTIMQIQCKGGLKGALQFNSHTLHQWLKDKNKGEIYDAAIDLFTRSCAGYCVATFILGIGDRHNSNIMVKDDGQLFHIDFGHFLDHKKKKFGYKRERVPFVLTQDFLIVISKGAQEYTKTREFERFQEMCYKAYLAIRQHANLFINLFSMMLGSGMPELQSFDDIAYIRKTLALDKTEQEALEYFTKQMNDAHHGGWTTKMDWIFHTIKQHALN
Sequence (P26450 whole entry partner, the tested form may be a part): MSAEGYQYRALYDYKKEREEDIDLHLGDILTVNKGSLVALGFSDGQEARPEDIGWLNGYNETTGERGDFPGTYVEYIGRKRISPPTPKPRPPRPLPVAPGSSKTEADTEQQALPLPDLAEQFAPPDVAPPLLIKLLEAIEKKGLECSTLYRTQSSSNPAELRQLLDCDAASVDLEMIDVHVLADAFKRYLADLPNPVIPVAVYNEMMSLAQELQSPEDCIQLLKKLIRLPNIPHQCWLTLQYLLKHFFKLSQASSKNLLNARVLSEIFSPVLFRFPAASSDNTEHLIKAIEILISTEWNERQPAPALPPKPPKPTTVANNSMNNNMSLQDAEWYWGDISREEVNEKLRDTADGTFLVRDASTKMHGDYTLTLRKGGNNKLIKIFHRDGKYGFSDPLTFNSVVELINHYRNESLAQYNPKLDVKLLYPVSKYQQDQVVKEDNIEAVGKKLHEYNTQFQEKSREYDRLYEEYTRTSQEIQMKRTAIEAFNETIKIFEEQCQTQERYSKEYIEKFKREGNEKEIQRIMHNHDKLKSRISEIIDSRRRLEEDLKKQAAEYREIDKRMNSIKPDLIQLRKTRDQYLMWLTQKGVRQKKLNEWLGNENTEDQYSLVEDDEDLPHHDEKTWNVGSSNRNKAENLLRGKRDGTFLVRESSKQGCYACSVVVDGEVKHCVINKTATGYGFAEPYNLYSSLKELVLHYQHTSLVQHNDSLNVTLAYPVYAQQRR
Method Notes: PI3-Kα biochemical assay (in vitro kinase assay, fluorescence polarization);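 note: Insect-cell-expressed mouse p110/p85 complex converting PI(4,5)P2, product PI(3,4,5)P3 detected by displacing TAMRA-tagged PI(3,4,5)P3 from Grip1 PH domain, lower polarization means more product, room temperature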
Experimental Context: Ki calculated from IC50, [ATP]=30 uM, Km=25 uM
Experimental Endpoint: PI3Ka Ki (nM)
Just the number please, in nM, no unit attached.

Field: example entries. Status: answers known.
[Q] Form field - read-out: PI3Ka Ki; system: PI3-Kα (Mus musculus (Mouse)); submitted item: CNC(=O)N1CCC(n2c(=O)n(C)c3cnc4ccc(-c5ccc(N(C)C)nc5)nc4c32)CC1 [Compound 196]
[A] 0.76

[Q] And then Cn1c(=O)n([C@H]2CC[C@H](O)CC2)c2c3nc(-c4cnc5ccccc5c4)ccc3ncc21 [Compound 146] , what is it?
[A] 1.2

[Q] And then Cn1c(=O)n(C2CCOCC2)c2c3nc(-c4cn[nH]c4)ccc3ncc21 [Compound 199] , what is it?
[A] 11.3

[Q] And then COC(=O)N1CCC(n2c(=O)n(C)c3cnc4ccc(-c5cnc6ccccc6c5)nc4c32)CC1 [Compound 122] , what is it?
[A] 0.806

[Q] And then COc1ccc(-c2ccc3ncc4[nH]c(=O)n(Cc5ccccc5)c4c3n2)cn1 [Compound 130] , what is it?
[A] 2.39

[Q] And then COc1ncc(-c2ccc3ncc4c(c3n2)n([C@H]2CC[C@H](OCCO)CC2)c(=O)n4C)cn1 [Compound 148] , what is it?
[A] 2.09

[Q] And then COc1ccc(-c2ccc3ncc4c(c3n2)n(C2CCN(C(=O)[C@H](C)O)CC2)c(=O)n4C)cc1 [Compound 272] , what is it?
[A] 1.84

Others:
[Q] Form field - read-out: PI3Ka Ki; system: PI3-Kα (Mus musculus (Mouse)); submitted item: C[C@H](CO)n1c(=O)n(C)c2cnc3ccc(-c4cccc5[nH]ccc45)nc3c21 [Compound 237]
[A] 29.6
